- method_summary: Example 1: image storage stability 1 (developed material stored in the dark)
- particulars: Table 2, 1.6×10^-1 mol/mol-Ag, 24 hours, relative humidity 50%
measured_endpoint: Image storage stability-1 (stored in dark, 60°C, 50%) Dmin

Example entries and their recorded answers appear below.
[
  {
    "compound": "CCCC(C)NC(=O)c1cccc(S(=O)(=O)C(Br)(Br)Br)c1 (centres unmarked) [P'-20]",
    "readout_value": 0.17
  },
  {
    "compound": "CCCCOCCCNC(=O)c1cccc(S(=O)(=O)C(Br)(Br)Br)c1 [P'-15]",
    "readout_value": 0.18
  },
  {
    "compound": "CCCCCCCCCCCCCCCCNC(=O)c1cccc(S(=O)(=O)C(Br)(Br)Br)c1 [Comparative Compound (1)]",
    "readout_value": 0.54
  },
  {
    "compound": "CCC(CC)NC(=O)c1cccc(S(=O)(=O)C(Br)(Br)Br)c1 [P'-18]",
    "readout_value": 0.17
  }
]

P: CCCCCCCCN(CCCCCCCC)S(=O)(=O)c1ccc(S(=O)(=O)C(Br)(Br)Br)cc1 [Comparative Compound (4)]
Q: CCOCCNC(=O)c1cccc(S(=O)(=O)C(Br)(Br)Br)c1 [P'-1]
Could you please tell me which of these two has the higher Image storage stability-1 (stored in dark, 60°C, 50%) Dmin: P or Q ? Field: selected label. Fill in the label of the entry you choose.
P

P: O=C(c1cccc(S(=O)(=O)C(Br)(Br)Br)c1)N1CCCC1 [Comparative Compound (3)]
Q: CCCCCCCCCCCCN(CCCCCCCCCCCC)C(=O)c1cc(S(C)(=O)=O)ccc1S(=O)(=O)C(Br)(Br)Br [Comparative Compound (5)]
Pick one, P or Q : lowest reported Image storage stability-1 (stored in dark, 60°C, 50%) Dmin. Field: selected label. Fill in the label of the entry you choose.
P

All figures here come from patent EP1072948B1.
